- SUBJECT OF TEST: T1, hRET.mmh (human, UniProt P07949 29-635, biotinylated in the ELISA of Example 4 (biot-hRET.mmh); not in the SPR of Example 3)
- T1 construct: also called biot-hRET.mmh; soluble monomeric human RET
- ASSAY OVERVIEW: SPR Biacore T200, mAb capture, 25 C
# t½ listing for each entry below
QUANTITY MEASURED: t½ (min)

{"BINDER": "H4H8067P (antibody, human IgG4, V domains shown, human IgG4 Fc (H4H prefix)) VH: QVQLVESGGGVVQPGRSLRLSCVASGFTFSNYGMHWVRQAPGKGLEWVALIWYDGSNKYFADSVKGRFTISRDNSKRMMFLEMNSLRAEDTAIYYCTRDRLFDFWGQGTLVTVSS VL: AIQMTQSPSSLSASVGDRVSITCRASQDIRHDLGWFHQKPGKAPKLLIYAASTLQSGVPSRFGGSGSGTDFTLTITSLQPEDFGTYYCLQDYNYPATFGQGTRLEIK", "QUANTITY MEASURED": "t½", "DISPLAY UNIT": "min", "RECORDED RESULT": 49}
{"BINDER": "H4H8083P (antibody, human IgG4, V domains shown, human IgG4 Fc (H4H prefix)) VH: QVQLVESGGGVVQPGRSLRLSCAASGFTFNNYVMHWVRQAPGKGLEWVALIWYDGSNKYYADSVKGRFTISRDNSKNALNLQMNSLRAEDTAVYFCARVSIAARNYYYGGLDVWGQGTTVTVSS VL: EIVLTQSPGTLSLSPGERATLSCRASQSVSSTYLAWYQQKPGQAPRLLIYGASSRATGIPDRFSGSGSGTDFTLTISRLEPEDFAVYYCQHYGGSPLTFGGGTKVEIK", "QUANTITY MEASURED": "t½", "DISPLAY UNIT": "min", "RECORDED RESULT": 24}
{"BINDER": "H4H8071P (antibody, human IgG4, V domains shown, human IgG4 Fc (H4H prefix)) VH: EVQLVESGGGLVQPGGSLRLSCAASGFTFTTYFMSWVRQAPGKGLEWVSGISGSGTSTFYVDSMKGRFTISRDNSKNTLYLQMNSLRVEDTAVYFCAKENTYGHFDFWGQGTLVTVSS VL: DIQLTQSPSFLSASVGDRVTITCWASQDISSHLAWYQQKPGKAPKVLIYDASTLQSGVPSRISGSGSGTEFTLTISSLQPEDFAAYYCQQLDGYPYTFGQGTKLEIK", "QUANTITY MEASURED": "t½", "DISPLAY UNIT": "min", "RECORDED RESULT": 53}
